- System: surinam grass
- assay: Test B pre/postemergence surinam grass
- Format: in vivo, Brachiaria decumbens
- condition.parameters: Preemergence, Rate 250 g/ha; scale 0 to 10, 0 is no effect, 10 is complete control
Parameter: B. signalgrass plant response rating. Scope: all listed entries.
API note: the answer field is a bare number with no unit suffix.

smiles.string: CC(C)N(Cc1ccccc1)C(=O)n1oc(=O)n(C(C)C)c1=O
result: 6

Return reported B. signalgrass plant response rating; argument: CCOC(=O)C=CCn1c(=O)on(C(=O)N(c2ccc(F)cc2)C(C)C)c1=O
0

Return reported B. signalgrass plant response rating; argument: CC(C)N(C(=O)n1oc(=O)n(-c2cnn(C)c2)c1=O)c1ccccc1
0

Return reported B. signalgrass plant response rating; argument: CC(C)N(C(=O)n1oc(=O)n(C(CF)CF)c1=O)c1ccc(Cl)cc1
3

###

- Test system: velvetleaf
- assay: Test B pre/postemergence velvetleaf
- Assay type: in vivo, Abutilon theophrasti
- condition.parameters: Rate 125 g/ha; Postemergence; scale 0 to 10, 0 no effect, 10 complete control
observable: Velvetleaf plant response rating
API note: the answer field is a bare number with no unit suffix.

Return reported Velvetleaf plant response rating; argument: CC(C)N(C(=O)n1oc(=O)n(-c2ccc(Cl)cc2Cl)c1=O)c1ccc(F)cc1
0

Return reported Velvetleaf plant response rating; argument: CC(C)N(C(=O)n1oc(=O)n(Cc2ccccc2)c1=O)c1ccc(F)cc1F
0

Return reported Velvetleaf plant response rating; argument: CCN(CC)C(=O)n1oc(=O)n(-c2cc(Cl)cc(Cl)c2)c1=O
0

Return reported Velvetleaf plant response rating; argument: CC(C)N(C(=O)n1oc(=O)n(Cc2cccs2)c1=O)c1ccc(F)cc1F
0

###

- Test system: giant foxtail
- assay: Test B pre/postemergence giant foxtail
- Type: in vivo, Setaria faberii
- condition.parameters: Postemergence, Rate 62 g/ha; scale of 0 to 10, 0 is no effect, 10 is complete control
observable: Giant foxtail plant response rating
API note: the answer field is a bare number with no unit suffix.

molecule: CC(C)N(C(=O)n1oc(=O)n(CC(=O)N(C)C)c1=O)c1ccc(F)cc1
Giant foxtail plant response rating: 2

molecule: CC(C)N(C(=O)n1oc(=O)n(CC(=O)C(F)(F)F)c1=O)c1ccc(F)cc1F
Giant foxtail plant response rating: 0

molecule: CC(C)N(C(=O)n1oc(=O)n(C(C)C(=O)c2ccccc2)c1=O)c1ccccc1 (stereo not drawn)
Giant foxtail plant response rating: 0

molecule: CCC=CCn1c(=O)on(C(=O)N(c2ccc(Cl)cc2)C(C)C)c1=O
Giant foxtail plant response rating: 0

molecule: CC(C)N(C(=O)n1oc(=O)n(CCC(F)(F)F)c1=O)c1ccccc1
Giant foxtail plant response rating: 7

Here is another molecule to look at.
Return reported Giant foxtail plant response rating; argument: COC(C)n1c(=O)on(C(=O)N(c2ccc(Cl)cc2)C(C)C)c1=O (stereo not drawn)
0

###

- System: surinam grass
- assay: Test B pre/postemergence surinam grass
- Assay type: in vivo, Brachiaria decumbens
- condition.parameters: Postemergence, Rate 125 g/ha; scale of 0 to 10 where 0 is no effect and 10 is complete control
Parameter: B. signalgrass plant response rating. Scope: all listed entries.

Please review the following examples before continuing.
molecule: CC(C)N(Cc1ccccc1)C(=O)n1oc(=O)n(C(C)C)c1=O
B. signalgrass plant response rating: 1
//
molecule: COC1CCC(Cn2c(=O)on(C(=O)N(c3ccc(Cl)cc3)C(C)C)c2=O)=NO1 (stereo not shown)
B. signalgrass plant response rating: 0
//
molecule: C#CC(CC)n1c(=O)on(C(=O)N(c2ccc(F)cc2)C(C)C)c1=O (stereo not shown)
B. signalgrass plant response rating: 0

Return reported B. signalgrass plant response rating; argument: C=CCn1c(=O)on(C(=O)N(c2ccc(F)cc2)C2CC2)c1=O
0

Provenance of the data: patent US6737383B1
